- ASSAY_PROTOCOL: Cytotoxicity against HMEC1 cells after 72 hrs by MTT assay
- Assay type: cell-based, HMEC-1
- ASSAY_CONTEXT: human
# Lookup of reported CC50 at 72 h keyed by entry
Numeric only. Scale: µM

>  <MOLECULE_SMILES>
Cc1c(CN2CCCC2)cc(-c2ccc(C(F)(F)F)cc2)n1Nc1ccnc2cc(Cl)ccc12

>  <QUANTITY_KIND>
CC50 at 72 h

>  <RECORDED_RESULT>
4.7

$$$$

IN: Using known records, supply CC50 at 72 h for "Cc1c(CN2CCCC2)cc(-c2ccc(F)cc2)n1Nc1ccnc2cc(Cl)ccc12"
OUT: 10.1

IN: Using known records, supply CC50 at 72 h for "CCN(CC)Cc1cc(-c2ccccc2)n(Nc2ccnc3cc(Cl)ccc23)c1C"
OUT: 16.7

IN: Using known records, supply CC50 at 72 h for "CCN(CC)Cc1cc(-c2ccc(C)cc2)n(Nc2ccnc3cc(Cl)ccc23)c1C"
OUT: 7.05

IN: Using known records, supply CC50 at 72 h for "Cc1ccc(-c2cc(CN3CCCC3)c(C)n2Nc2ccnc3cc(Cl)ccc23)cc1"
OUT: 7.15
